target: Grb2 SH2 (UniProt P62993); test: SH2 binding enrichment of the phosphorylated peptide, bacterial display (enrichment ratio); higher = better substrate or ligand; peptides without Tyr show the background
endpoint.label: SH2 binding enrichment

Consider the reported SH2 binding enrichment for these sequences:
>>> value_measured("SIKDKYVTALY [KCNH2_Y611]")
0.747
>>> value_measured("VIGRMYDYHVL [RPF2_Y109]")
0.927
>>> value_measured("SKHHLYSDLQT [PTCHD1_Y84_R82H]")
1.06
>>> value_measured("MKDLTYASLCF [ALOX5_Y446]")
0.912
>>> value_measured("VGTKRYVAPEV [ACVRL1_Y375_M376V]")
0.724

(A) GGDGSYVSVPL [TNNI3K_Y425_S430L]
(B) CTTIHFNFMCN [TP53_Y234_Y234F_YF]
Parameter metric = SH2 binding enrichment. Return the lower-valued option from A and B . Lab log: write the label of the selected item as the result.
A

###

molecular target: FGFR3 (UniProt P22607); assay: phosphorylation enrichment, bacterial display (enrichment ratio); higher = better substrate or ligand; peptides without Tyr show the background
Sequence (P22607 whole entry, looked up): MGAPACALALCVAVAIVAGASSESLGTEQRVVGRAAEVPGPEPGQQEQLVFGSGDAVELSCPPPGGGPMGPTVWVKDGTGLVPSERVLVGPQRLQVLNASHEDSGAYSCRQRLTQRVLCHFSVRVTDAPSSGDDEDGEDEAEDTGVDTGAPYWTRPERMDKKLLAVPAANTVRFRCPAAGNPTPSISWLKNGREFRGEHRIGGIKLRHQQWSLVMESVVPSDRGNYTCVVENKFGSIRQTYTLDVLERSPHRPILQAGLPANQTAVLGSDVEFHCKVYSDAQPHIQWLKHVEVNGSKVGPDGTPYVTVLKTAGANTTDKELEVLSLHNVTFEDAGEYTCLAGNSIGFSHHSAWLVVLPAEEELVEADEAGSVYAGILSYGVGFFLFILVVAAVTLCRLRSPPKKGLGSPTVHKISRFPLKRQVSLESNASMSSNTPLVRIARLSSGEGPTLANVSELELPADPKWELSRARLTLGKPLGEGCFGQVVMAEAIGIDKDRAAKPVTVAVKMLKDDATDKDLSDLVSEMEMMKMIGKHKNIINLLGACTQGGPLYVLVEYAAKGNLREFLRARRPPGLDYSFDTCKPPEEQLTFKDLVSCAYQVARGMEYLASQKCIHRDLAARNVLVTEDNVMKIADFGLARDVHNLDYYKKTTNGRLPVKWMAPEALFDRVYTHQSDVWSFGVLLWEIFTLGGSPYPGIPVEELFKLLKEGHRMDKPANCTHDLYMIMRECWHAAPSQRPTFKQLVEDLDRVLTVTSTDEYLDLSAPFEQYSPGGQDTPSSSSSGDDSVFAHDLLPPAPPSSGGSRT
endpoint.label: phosphorylation enrichment
API doc: respond with a numeric literal and nothing else, no unit.

>>> value_measured("GADDSYYTARS [ZAP70_Y492]")
0.652
>>> value_measured("ALRASYTPSPV [ESS2_Y418_A423V]")
0.502
>>> value_measured("IPGGIYNADLN [CST4_Y35_D36N]")
0.516
>>> value_measured("DRLASYRDKVR [KRT12_Y139_L140R]")
0.425
>>> value_measured("DCPASYKKKSM [PDGFRA_Y768_R764C]")
0.202

So for ANYTEYVATSW [CDKL5_Y171_R175S] , the logged phosphorylation enrichment turned out to be 2.82

response.value for KIPGRYYETGS [PAX2_Y72_L69P] (field: phosphorylation enrichment) = 0.539

###

Below, each entry is listed with its recorded phosphorylation enrichment.
test system: c-Src; test: phosphorylation enrichment, bacterial display (enrichment ratio); higher = better substrate or ligand; peptides without Tyr show the background
Respond using a number only.

>>> value_measured("PLTRSYIREKV [CYP2C8_Y243_A238P]")
0.448

get_value(item= DIPIRYSITGV [CDH4_Y205] , readout=phosphorylation enrichment) returns 0.367

Short answer for FVFSFYHAFSG [ACTN4_Y265_S262F_YF] : phosphorylation enrichment was 0.714

Please fill in: phosphorylation enrichment reported for ANRNVYEVEPT [MEGF10_Y1075] = 4

The recorded phosphorylation enrichment for VVKTVYSLQPS [KNSTRN_Y87_P92S] is 2.05

# phosphorylation enrichment of QQLQGYIPSNY [FRK_Y99] = 0.382

// phosphorylation enrichment lookup, sequence = LYRYGYANTSE [SI_Y1233_C1229Y] , result: 0.351

Please fill in: phosphorylation enrichment reported for TFEPNYGTVKQ [RAPGEF6_Y1447_YF] = 1.22

###

biological target: EPHB1 (UniProt P54762); test: phosphorylation enrichment, bacterial display (enrichment ratio); higher = better substrate or ligand; peptides without Tyr show the background
Sequence (P54762 whole entry, looked up): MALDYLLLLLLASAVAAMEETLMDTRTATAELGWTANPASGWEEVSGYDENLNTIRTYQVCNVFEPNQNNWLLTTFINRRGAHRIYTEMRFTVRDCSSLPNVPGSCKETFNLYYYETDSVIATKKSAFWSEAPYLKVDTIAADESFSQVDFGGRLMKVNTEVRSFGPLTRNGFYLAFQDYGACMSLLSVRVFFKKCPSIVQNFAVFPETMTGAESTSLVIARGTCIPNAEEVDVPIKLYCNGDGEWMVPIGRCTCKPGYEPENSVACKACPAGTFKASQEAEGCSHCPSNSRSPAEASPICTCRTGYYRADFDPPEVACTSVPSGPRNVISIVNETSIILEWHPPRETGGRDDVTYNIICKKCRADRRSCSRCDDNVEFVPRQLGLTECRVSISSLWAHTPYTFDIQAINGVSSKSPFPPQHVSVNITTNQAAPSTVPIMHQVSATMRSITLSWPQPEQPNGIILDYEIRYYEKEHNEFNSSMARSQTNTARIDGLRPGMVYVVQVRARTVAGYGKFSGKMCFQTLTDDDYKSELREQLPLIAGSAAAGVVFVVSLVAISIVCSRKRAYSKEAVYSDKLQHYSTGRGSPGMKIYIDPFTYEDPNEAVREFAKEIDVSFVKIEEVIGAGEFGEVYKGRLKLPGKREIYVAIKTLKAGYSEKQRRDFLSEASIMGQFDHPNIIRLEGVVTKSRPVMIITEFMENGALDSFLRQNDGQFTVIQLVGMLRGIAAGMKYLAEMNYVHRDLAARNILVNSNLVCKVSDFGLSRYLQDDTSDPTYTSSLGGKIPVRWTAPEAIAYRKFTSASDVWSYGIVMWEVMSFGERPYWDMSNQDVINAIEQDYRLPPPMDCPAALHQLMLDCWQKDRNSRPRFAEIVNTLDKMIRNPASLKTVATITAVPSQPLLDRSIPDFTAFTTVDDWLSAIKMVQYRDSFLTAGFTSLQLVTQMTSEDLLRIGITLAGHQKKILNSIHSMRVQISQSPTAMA
endpoint.label: phosphorylation enrichment
// response body must contain only the number

Known results for sequences:
>>> value_measured("ATHSRYRLNDY [CLDN14_Y233_G232R]")
0.484
>>> value_measured("AHDGEYGAEAL [HBA1_Y25_A22D]")
0.556
>>> value_measured("GFCSWYRGWAP [TIMP3_Y195_YF]")
0.763
>>> value_measured("SKHHLYSDLQT [PTCHD1_Y84_R82H]")
0.462
>>> value_measured("LIFTNYEAGKD [GSTP1_Y112_YF]")
0.703
>>> value_measured("TEQDPYNNIDR [MMUT_Y364_V368D]")
0.638

Fill in: EPHB1 (UniProt P54762) phosphorylation enrichment for FDGKDYIALNE [HLA-A_Y147_YF] = 0.628

Recorded phosphorylation enrichment for RNLDTYQKRLR [PLA2G2D_Y126] on EPHB1 (UniProt P54762) was 0.831

Item QTPVLYTMLDH [MPZ_Y220_A221T] was tested on EPHB1 (UniProt P54762); the reported phosphorylation enrichment is 4.45

Bench note, EPHB1 (UniProt P54762): entry RRIHSHRGHLW [VHL_Y112_Y112H] , its phosphorylation enrichment = 0.773

Entry ILGRTHYVNHE [NEDD4_Y627_Y627H] , tested on EPHB1 (UniProt P54762), has a reported phosphorylation enrichment of 0.468

Tested on EPHB1 (UniProt P54762), the item ILTFKYLQIPM [KIT_Y547_K550I_YF] showed phosphorylation enrichment equal to 0.586

phosphorylation enrichment on EPHB1 (UniProt P54762) for DRLASYRDKVR [KRT12_Y139_L140R] is 0.294

Let me check: FSKTQYNQVPR [CXADR_Y318_S323R_YF] , system EPHB1 (UniProt P54762), measured phosphorylation enrichment is 0.409

EPHB1 (UniProt P54762) assay, sequence GRRNTYYASIA [ACADM_Y352] , recorded phosphorylation enrichment = 0.35

Entry DDEVFYSPRSL [OTC_Y317] under EPHB1 (UniProt P54762) had phosphorylation enrichment of 0.597

Measured on EPHB1 (UniProt P54762), GRQWNYVASML [KLHL4_Y552_S557L] has a documented phosphorylation enrichment of 0.405

###

Each entry below lists one item and its recorded phosphorylation enrichment value.
molecular target: Fes (UniProt P07332); test: phosphorylation enrichment, bacterial display (enrichment ratio); higher = better substrate or ligand; peptides without Tyr show the background
Sequence (P07332 whole entry, looked up): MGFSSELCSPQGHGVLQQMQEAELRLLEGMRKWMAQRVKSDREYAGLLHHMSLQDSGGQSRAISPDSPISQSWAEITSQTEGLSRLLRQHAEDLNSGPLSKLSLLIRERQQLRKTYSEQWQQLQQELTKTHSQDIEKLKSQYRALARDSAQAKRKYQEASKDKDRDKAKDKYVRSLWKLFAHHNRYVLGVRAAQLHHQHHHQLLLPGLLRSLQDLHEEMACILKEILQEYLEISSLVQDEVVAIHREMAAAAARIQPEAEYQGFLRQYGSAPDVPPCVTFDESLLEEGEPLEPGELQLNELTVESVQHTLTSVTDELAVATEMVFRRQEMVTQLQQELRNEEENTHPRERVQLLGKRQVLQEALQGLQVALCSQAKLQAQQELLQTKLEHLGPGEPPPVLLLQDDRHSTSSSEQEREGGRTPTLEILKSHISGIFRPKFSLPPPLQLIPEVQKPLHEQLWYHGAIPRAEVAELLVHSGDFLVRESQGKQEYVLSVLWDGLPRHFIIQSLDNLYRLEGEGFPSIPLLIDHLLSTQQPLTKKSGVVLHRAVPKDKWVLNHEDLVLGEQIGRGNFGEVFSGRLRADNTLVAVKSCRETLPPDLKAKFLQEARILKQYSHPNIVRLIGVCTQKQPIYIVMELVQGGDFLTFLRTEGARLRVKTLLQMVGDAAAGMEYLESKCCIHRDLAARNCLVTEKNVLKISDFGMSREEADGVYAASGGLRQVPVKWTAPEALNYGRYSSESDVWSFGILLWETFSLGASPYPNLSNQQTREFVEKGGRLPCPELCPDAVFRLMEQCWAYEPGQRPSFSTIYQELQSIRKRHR
Output spec: single numeric token, no unit.

Recorded results for 3 sequences are shown here.
>>> value_measured("TLMNAYSSCSH [KIF11_Y231_R234C]")
0.803
>>> value_measured("LSNPAYCLLLA [DDR1_Y513_R514C]")
1.63
>>> value_measured("QSRSPYSSRHS [CDK13_Y415_R410Q]")
0.808

The sequence listed as YKEQGYHRLPP [RIN1_Y681] shows phosphorylation enrichment equal to 0.507

Documented phosphorylation enrichment of VVKLAYNENDN [CAMKK2_Y183] : 0.897

Given item ALAAPYVLFPG [CEFIP_Y1332_YF] , the value recorded as its phosphorylation enrichment is 0.726

Looking up GDPTEYYITAI [IGSF22_Y501_S503I] , I found its phosphorylation enrichment recorded as 1.1

Form: sequence = TINPIHEHVGY [CHN1_Y143_Y143H] ; phosphorylation enrichment = 0.727

phosphorylation enrichment reading for LDMSQYFRLFN [CPT2_Y217] : 1.55

Field phosphorylation enrichment (entry PVQAAYQKVVD [HBB_Y131_A136D] ) reads 1.01

Query ACCLLYHGDVV [TUBA4A_Y319_R320H] yields phosphorylation enrichment of 0.887

phosphorylation enrichment in this record for FAADFYKLLGN [ROR2_Y646_YF] : 1.01

Consider GHEYIYVDPMQ [PDGFRA_Y574] . Its measured phosphorylation enrichment is 0.917

Entry PMDGEYFTLQI [TP53_Y327_L323M] — recorded phosphorylation enrichment = 1.95

###

target: Fes (UniProt P07332); experiment: phosphorylation enrichment, bacterial display (enrichment ratio); higher = better substrate or ligand; peptides without Tyr show the background
endpoint.label: phosphorylation enrichment
// no unit string in output, number only

Here is how some sequences turned out for phosphorylation enrichment.
>>> value_measured("PLQSEYSSITT [ITGB4_Y1760]")
2.13
>>> value_measured("SGKSEYLLPVA [MYLK_Y611_R607G]")
0.89
>>> value_measured("GEEIKYMLWLL [OTC_Y55_S60L]")
1.55

So for MEKEKYVSYIS [JMJD1C_Y596] , the logged phosphorylation enrichment turned out to be 1.11

Entry KLASTYREAAT [DEAF1_Y483_H479L] — recorded phosphorylation enrichment = 0.494

The recorded phosphorylation enrichment for entry NFFDLYGGEKF [PTPN11_Y66_D61N_YF] equals 1.02

KSLFHYRQYSA [CPS1_Y1491] yielded phosphorylation enrichment of 0.808

The value of phosphorylation enrichment measured for the sequence HHTDECEYDEL [TGM1_Y134_Y134C] turned out to be 1.75

Short answer for LTTPTYGDLNH [TUBB_Y222] : phosphorylation enrichment was 1.47

// sample IDGLEYLHSQS [STK11_Y166_G171S] , its phosphorylation enrichment was 1.07

The value of phosphorylation enrichment measured for the sequence VMAALYGRLYE [BTD_Y536_T532M] turned out to be 0.963

Reported phosphorylation enrichment of PMQLPYDSTWE [PDGFRB_Y589] : 1.69

Documented phosphorylation enrichment of EPNSRYTYKLE [USH2A_Y3745] : 0.895

Recorded phosphorylation enrichment (sequence KNEVFYQCPDQ [FBXO3_Y223] ): 1.55
